Recorded values, source ChEMBL document CHEMBL3352534.

Exercise: state measured solubility for each of the compounds provided.
TEST_PROTOCOL: Solubility of the compound at pH 6.8
Assay type: physicochemical
PARTICULARS: buffer
Use µg/mL as the unit, but write only the number.

Note to self: solubility recorded for CCOc1cc(NC(=O)C2(NC(=O)c3ccc4c(C5CCCC5)c(-c5ncc(Cl)cn5)n(C)c4c3)CCC2)ccc1/C=C/C(=O)OCOP(=O)(O)O was 140

Note to self: solubility recorded for CCOc1cc(NC(=O)C2(NC(=O)c3ccc4c(C5CCCC5)c(-c5ncc(Cl)cn5)n(C)c4c3)CCC2)ccc1/C=C/C(=O)OCOP(=O)(O)OC(C)(C)C was 781
